B1: library; a variant is named by its letters at N, in order (parent)
chain: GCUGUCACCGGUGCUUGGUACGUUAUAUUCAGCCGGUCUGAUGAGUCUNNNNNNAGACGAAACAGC

Variants of: B1
test: normalized RNA/DNA level with ligand (relative to sTRSVctl = 100) (log10 (% of sTRSVctl)); HEK293T overexpressing SLC46A1; ligand concentration (+) RNA-Seq: 6 mM; higher = less ribozyme self-cleavage, higher mRNA level
test settings: with (6R,S)-folinic acid; ligand present: yes
Give normalized RNA/DNA level with ligand (log10) for every item shown.
Write no unit; give the number alone.

Request: For the variant "AAAAGU" , report normalized RNA/DNA level with ligand (log10).
Result: 2

Request: For the variant "UUCAGG" , report normalized RNA/DNA level with ligand (log10).
Result: 1.98

Request: For the variant "AGGUCC" , report normalized RNA/DNA level with ligand (log10).
Result: 2.03

Request: For the variant "ACUCCA" , report normalized RNA/DNA level with ligand (log10).
Result: 2.04

Request: For the variant "GUCAUA" , report normalized RNA/DNA level with ligand (log10).
Result: 1.99

Request: For the variant "ACUCUA" , report normalized RNA/DNA level with ligand (log10).
Result: 2.01

Request: For the variant "UCUUUG" , report normalized RNA/DNA level with ligand (log10).
Result: 1.95

Request: For the variant "CCUGGA" , report normalized RNA/DNA level with ligand (log10).
Result: 2.07

Request: For the variant "UCAAGA" , report normalized RNA/DNA level with ligand (log10).
Result: 2.03

Request: For the variant "CGAGGG" , report normalized RNA/DNA level with ligand (log10).
Result: 1.97

Request: For the variant "UAAUUG" , report normalized RNA/DNA level with ligand (log10).
Result: 1.97

Request: For the variant "GGGGAC" , report normalized RNA/DNA level with ligand (log10).
Result: 2.03

Request: For the variant "ACGUGC" , report normalized RNA/DNA level with ligand (log10).
Result: 2.02

Request: For the variant "CUAUAC" , report normalized RNA/DNA level with ligand (log10).
Result: 2.01

Request: For the variant "UCAUAA" , report normalized RNA/DNA level with ligand (log10).
Result: 1.96

Request: For the variant "AUUUAU" , report normalized RNA/DNA level with ligand (log10).
Result: 2.01

Request: For the variant "UGGUUU" , report normalized RNA/DNA level with ligand (log10).
Result: 1.97

Request: For the variant "GUUGCG" , report normalized RNA/DNA level with ligand (log10).
Result: 2.02

Request: For the variant "CUUGGC" , report normalized RNA/DNA level with ligand (log10).
Result: 2.04

Request: For the variant "AUCCUG" , report normalized RNA/DNA level with ligand (log10).
Result: 2.02

Request: For the variant "AAGCCG" , report normalized RNA/DNA level with ligand (log10).
Result: 2.01

Request: For the variant "CCAGCU" , report normalized RNA/DNA level with ligand (log10).
Result: 2.04

Request: For the variant "UGUGAC" , report normalized RNA/DNA level with ligand (log10).
Result: 1.99

Request: For the variant "GUGUAU" , report normalized RNA/DNA level with ligand (log10).
Result: 2.01

Request: For the variant "GCUCCC" , report normalized RNA/DNA level with ligand (log10).
Result: 2.06

Request: For the variant "CGUUCA" , report normalized RNA/DNA level with ligand (log10).
Result: 2.04

Request: For the variant "UUUAAC" , report normalized RNA/DNA level with ligand (log10).
Result: 1.99

Request: For the variant "UCUGGC" , report normalized RNA/DNA level with ligand (log10).
Result: 2.04

Request: For the variant "ACAGUC" , report normalized RNA/DNA level with ligand (log10).
Result: 2.05

Request: For the variant "UUCUAG" , report normalized RNA/DNA level with ligand (log10).
Result: 1.99

Request: For the variant "GAGCAC" , report normalized RNA/DNA level with ligand (log10).
Result: 2.04

Request: For the variant "GGAUGA" , report normalized RNA/DNA level with ligand (log10).
Result: 2.06

Request: For the variant "CCAACG" , report normalized RNA/DNA level with ligand (log10).
Result: 2.01

Request: For the variant "CGGACA" , report normalized RNA/DNA level with ligand (log10).
Result: 2.02

Request: For the variant "CUGGGA" , report normalized RNA/DNA level with ligand (log10).
Result: 2.03

Request: For the variant "GGUAAA" , report normalized RNA/DNA level with ligand (log10).
Result: 2

Request: For the variant "AACCCC" , report normalized RNA/DNA level with ligand (log10).
Result: 1.99

Request: For the variant "AACGCG" , report normalized RNA/DNA level with ligand (log10).
Result: 2.03

Request: For the variant "ACUCUU" , report normalized RNA/DNA level with ligand (log10).
Result: 2.01

Request: For the variant "UCGAUC" , report normalized RNA/DNA level with ligand (log10).
Result: 2.03

Request: For the variant "CUGCUG" , report normalized RNA/DNA level with ligand (log10).
Result: 2.03

Request: For the variant "GUAAUC" , report normalized RNA/DNA level with ligand (log10).
Result: 2.06

Request: For the variant "CUCAUU" , report normalized RNA/DNA level with ligand (log10).
Result: 2.05

Request: For the variant "GCACCA" , report normalized RNA/DNA level with ligand (log10).
Result: 2

Request: For the variant "AAAACA" , report normalized RNA/DNA level with ligand (log10).
Result: 2

Request: For the variant "AGUUAG" , report normalized RNA/DNA level with ligand (log10).
Result: 2
